Molecular target: human Y2 receptor (Homo sapiens)
Construct: expressed in transfected cells; host or cells: COS-7 cells, transient transfection, co-transfected with Gqi5
Sequence (P49146 whole entry): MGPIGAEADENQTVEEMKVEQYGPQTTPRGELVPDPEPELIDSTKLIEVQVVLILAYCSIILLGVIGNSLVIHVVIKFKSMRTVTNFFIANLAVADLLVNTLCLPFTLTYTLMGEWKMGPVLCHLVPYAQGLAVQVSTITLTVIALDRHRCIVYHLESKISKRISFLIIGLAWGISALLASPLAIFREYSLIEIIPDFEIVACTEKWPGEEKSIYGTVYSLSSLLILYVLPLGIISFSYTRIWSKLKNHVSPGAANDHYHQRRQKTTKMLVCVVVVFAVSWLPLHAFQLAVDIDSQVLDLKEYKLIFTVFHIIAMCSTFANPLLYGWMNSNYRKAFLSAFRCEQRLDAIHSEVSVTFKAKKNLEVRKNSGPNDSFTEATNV
Test: Human Y2 receptor potency assay (inositol phosphate turnover)
Assay type: cell-based
Procedure: Potency of the test compounds on the human Y2 receptor is determined by performing dose-response experiments in COS-7 cells transiently transfected with the human Y2 receptor as well as a promiscuous G protein, Gqi5 which ensures that the Y2 receptor couples through a Gq pathway leading to an increase in inositol phosphate turnover. […]
pEC50: −log10 of the molar value. Where no end group is shown, it is not given here.
metric: pEC50

>>> observed_measurement("PLEPVYPGENATPEQLAQYAADLRRYINTLTRPRY-NH2 [[Glu10;Leu17;Thr-30]-PP(2-36), [Glu10, Leu17, Thr30]PP2-36]")
"< 6.00"
